target entity: T1, human GLP-1 receptor (human, UniProt P43220 24-463)
T1 construct: whole, on cells; reporter assay on whole cells
protocol summary: SPA displacement of [125I]GLP-1(7-36)NH2 from hGLP-1R BHK membranes
*1 amine or outer side, *2 acyl side, *3 side chain or, on linkers, in order; H or OH if unused. Where no end group is shown, it is not given here. Side-chain parts run from the residue outwards. [ ]: non-standard residue; d: D form. The star is where a group is joined. C18 diacid = O=C(O)CCCCCCCCCCCCCCCCC(=O)*; γGlu = O=C(O)[C@H](CCC(=O)[*:2])N[*:1]; Desaminohistidyl = O=C(CCc1c[nH]cn1)*; Ac4c = NC1(C(=O)O)CCC1; AEEA = NCCOCCOCC(=O)O; Aib = CC(C)(N)C(=O)O
pIC50 values by entry
pIC50 here is simply -log10 of the concentration when that concentration is written in mol/L.

Example results:
# binder, pIC50
records = [
    ("[Desaminohistidyl][Ac4c]HGTFTSDYSKYLEEQAAREFIAWLLKK([Gly-Ser-Glu-Gly-Ser-γGlu-γGlu-C18 diacid])-NH2", 9.15),
    ("[Desaminohistidyl][Aib]HGTFTSDVSKYLEEQAAREFIAWLIK([Ado-Ado-γGlu-γGlu-C18 diacid])T-NH2", 9.70),
    ("XXHGTFTSDYSKYLEEQAAREFIAWLLKK (Imp (desamino-His) at 7; Acb at 8; Lys35 N-epsilon acylated with 17-carboxyheptadecanoyl-γGlu-γGlu-Ado-γGlu-Ado-γGlu-Ado-γGlu-; C-terminal amide (GLP-1(7-37) numbering))", 8.85),
    ("XXHGTFTSDYSKYLEGRAAREFIAWLLKK (Imp (desamino-His) at 7; Acb at 8; Lys35 N-epsilon acylated with 17-carboxyheptadecanoyl-γGlu-γGlu-Ado-γGlu-Ado-γGlu-Ado-γGlu-; C-terminal amide (GLP-1(7-37) numbering))", 8.14),
    ("[Desaminohistidyl][Aib]HGTFTSDVSKYLEEQAAREFIAWLLK([Gly-Ser-Glu-Gly-Ser-γGlu-γGlu-C18 diacid])T (Named as peptide, not peptide amide (C-terminal acid))", 8.16),
]

Look at this binder and give its reported pIC50. [Desaminohistidyl][Aib]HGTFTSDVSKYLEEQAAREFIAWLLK([Ado-Ado-γGlu-C18 diacid])T-NH2
9.15

Param item: [Desaminohistidyl][Ac4c]HGTFTSDVSKYLEGRAAREFIAWLLK([Gly-Ser-Glu-Gly-Ser-γGlu-γGlu-C18 diacid])T-NH2
9.52

// query: XXHGTFTSDYSKYLERRAAREFIAWLLKK (Imp (desamino-His) at 7; Acb at 8; Lys35 N-epsilon acylated with 17-carboxyheptadecanoyl-γGlu-γGlu-Ado-γGlu-Ado-γGlu-Ado-γGlu-; C-terminal amide (GLP-1(7-37) numbering))
8.74

Note, next up: [Desaminohistidyl][Aib]HGTFTSDVSRYLEGRAAREFIAWLLK([γGlu-γGlu-AEEA-γGlu-γGlu-C18 diacid])GAG
9.00

Would you mind doing [Desaminohistidyl][Aib]HGTFTSDVSKYLEAQAAREFIAWLLK([γGlu-γGlu-Ado-γGlu-γGlu-C18 diacid])T-NH2 as well?
9.22

# credit: patent US20160102129A1
